experiment: in vitro; conditions: human, microsomes
Measure: half-life

Inquiry: Which half-life is reported for this molecule? C[C@H](NS(=O)(=O)c1ccc(-c2sc(NC(=O)CC(C)(C)O)nc2C(=O)N2CCC(F)CC2)c(Cl)c1Cl)C(F)(F)F
Reply text: > 3 h

Inquiry: Which half-life is reported for this molecule? CC(C)(O)CNC(=O)c1nc(CC2CCCCC2)c(-c2ccc(S(=O)(=O)NC(C)(C)C)c3ccccc23)s1
Reply text: 1.25 h

Inquiry: Which half-life is reported for this molecule? C[C@H](NS(=O)(=O)c1ccc(-c2sc(C(=O)NCC(C)(C)O)nc2C(=O)N2CC[C@H](F)C[C@@H]2C)c(Cl)c1Cl)C(F)(F)F
Reply text: > 3 h

---

experiment: physchem; conditions: buffer, pH 2
solubility vs 20 µM: at or above is condition met, below is condition not met.

Inquiry: Quick check: does C[C@H](NS(=O)(=O)c1ccc(-c2sc(C(=O)NCC(C)(C)O)nc2C(=O)N2CCCC[C@@H]2C)c(Cl)c1Cl)C(F)(F)F have solubility greater than or equal to 20 µM?
Reply text: condition not met

Inquiry: Quick check: does C[C@H](NS(=O)(=O)c1ccc(-c2sc(C(=O)NCC(C)(C)O)nc2C(=O)N2CC[C@H](F)C[C@@H]2C)c(Cl)c1Cl)C(F)(F)F have solubility greater than or equal to 20 µM?
Reply text: condition met

Inquiry: Quick check: does C[C@H](NS(=O)(=O)c1ccc(-c2sc(NC(=O)CC(C)(C)O)nc2C(=O)N2CCC(F)CC2)c(Cl)c1Cl)C(F)(F)F have solubility greater than or equal to 20 µM?
Reply text: condition not met

Inquiry: Quick check: does CC[C@H](NS(=O)(=O)c1ccc(-c2sc(C(=O)NCC(C)(C)O)nc2C(=O)N(CC)CC)c(Cl)c1Cl)C(F)(F)F have solubility greater than or equal to 20 µM?
Reply text: condition met

Inquiry: Quick check: does C[C@H](NS(=O)(=O)c1ccc(-c2sc(C(=O)NCC(C)(C)O)nc2C(=O)N2CC3CC3C2)c(Cl)c1Cl)C(F)(F)F (stereo partly drawn) have solubility greater than or equal to 20 µM?
Reply text: condition not met

Inquiry: Quick check: does C[C@H](NS(=O)(=O)c1ccc(-c2sc(C(=O)NCC(C)(C)O)nc2C(=O)N2CC[C@@H](F)C[C@@H]2C)c(Cl)c1Cl)C(F)(F)F have solubility greater than or equal to 20 µM?
Reply text: condition met

Inquiry: Quick check: does C[C@H](NS(=O)(=O)c1ccc(-c2sc(C(=O)NCC(C)(C)O)nc2C(=O)N2CCC(F)CC2)c(Cl)c1Cl)C(F)(F)F have solubility greater than or equal to 20 µM?
Reply text: condition met

Inquiry: Quick check: does C[C@H](NS(=O)(=O)c1ccc(-c2sc(C(=O)NCC(C)(C)O)nc2C(=O)N2CCC[C@@H]2CF)c(Cl)c1Cl)C(F)(F)F have solubility greater than or equal to 20 µM?
Reply text: condition not met

---

test: in vivo; conditions: rat, po, 50 mg/kg
Measure: AUC
Please state the number and follow it with the unit.

Inquiry: Which AUC is reported for this molecule? C[C@H](NS(=O)(=O)c1ccc(-c2sc(C(=O)NCC(C)(C)O)nc2C(=O)N2CCC(F)CC2)c(Cl)c1Cl)C(F)(F)F
Reply text: 870 ng·h/mL
